- Test Target: DNA polymerase lambda (Homo sapiens)
- Sequence (Q9UGP5 whole entry): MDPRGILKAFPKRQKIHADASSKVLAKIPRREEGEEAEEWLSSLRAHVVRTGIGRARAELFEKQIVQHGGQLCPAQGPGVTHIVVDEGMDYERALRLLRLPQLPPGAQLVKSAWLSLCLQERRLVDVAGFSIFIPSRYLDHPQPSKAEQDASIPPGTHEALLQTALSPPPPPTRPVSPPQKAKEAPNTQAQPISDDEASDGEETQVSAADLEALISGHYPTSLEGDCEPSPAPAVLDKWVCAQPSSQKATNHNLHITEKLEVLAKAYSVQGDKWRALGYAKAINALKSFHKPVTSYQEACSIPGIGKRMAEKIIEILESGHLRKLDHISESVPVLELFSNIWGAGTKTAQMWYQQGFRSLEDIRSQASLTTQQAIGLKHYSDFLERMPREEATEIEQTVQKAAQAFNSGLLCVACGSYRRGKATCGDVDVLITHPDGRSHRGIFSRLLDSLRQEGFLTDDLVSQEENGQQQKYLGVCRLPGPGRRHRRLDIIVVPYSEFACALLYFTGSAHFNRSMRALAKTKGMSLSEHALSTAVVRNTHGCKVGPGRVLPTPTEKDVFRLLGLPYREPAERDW
pIC50: −log10 of the molar value.
Readout Label: pIC50

A selection of reference data follows.
# Compound, pIC50
measured = [
    ("COc1cccc2c1C(O)CCC2O (stereo not given) [NODULISPOROL]", 3.77),
    ("CC1Cc2cccc(O)c2C(=O)O1 (stereo not given) [MELLEIN]", 3.50),
]

(a) COc1cccc2c1C(=O)CCC2O (stereo not given) [NODULISPORONE]
(b) COc1cccc2c1C(=O)OC(C)C2 (stereo not given)
(c) COc1cc(O)c2c(=O)c(CO)c(C)oc2c1
query: // smallest pIC50 at index 0, largest at the end Reply with the labels, ordered as the question asks.
result: c, b, a
(c: 3.34, b: 3.74, a: 4.09)
